Target: T1, LUXFL R146A (UniProt Q9SNB4 1-323, R146A)
T1 sequence: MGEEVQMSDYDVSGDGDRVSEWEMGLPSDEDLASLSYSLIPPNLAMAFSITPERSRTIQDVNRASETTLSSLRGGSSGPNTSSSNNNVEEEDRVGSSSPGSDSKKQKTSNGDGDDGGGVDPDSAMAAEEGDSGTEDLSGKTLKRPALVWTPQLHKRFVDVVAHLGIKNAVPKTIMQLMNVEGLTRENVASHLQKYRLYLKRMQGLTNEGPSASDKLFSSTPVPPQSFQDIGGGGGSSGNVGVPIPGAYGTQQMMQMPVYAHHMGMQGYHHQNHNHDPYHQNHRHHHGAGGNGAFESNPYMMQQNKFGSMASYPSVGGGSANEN
Assay: EMSA
For each of the binders below, state its Kd.
One number for each entry, in nM.

Below, 3 binders whose answers are already recorded.
Oligo 1 (PRR9 36 bp) (dsDNA) DNA 1: ATGATGTCTTCTCAAGATTCGATAAAAATGGTGTTG DNA 2: CAACACCATTTTTATCGAATCTTGAGAAGACATCAT | 105
Oligo 3 (AAGATCTT) (dsDNA) DNA 1: ATGATGTCTTCTCAAGATCTTATAAAAATGGTGTTG DNA 2: CAACACCATTTTTATAAGATCTTGAGAAGACATCAT | 204
Oligo 2 (AGATACGC) (dsDNA) DNA 1: ATGATGTCTTCTCAAGATACGCTAAAAATGGTGTTG DNA 2: CAACACCATTTTTAGCGTATCTTGAGAAGACATCAT | 336

Let us examine a further case.
Ask: Would you kindly share the measured Kd for Oligo 4 (GGATCCGA) (dsDNA) DNA 1: ATGATGTCTTCTCGGATCCGATAAAAATGGTGTTG DNA 2: CAACACCATTTTTATCGGATCCGAGAAGACATCAT ?
Result: 164

Data provenance: paper PMC7104408
